- assay.procedure: Clearance in Lewis rat plasma at 0.5 mg/kg, iv
- Type: ADME, organism-based
- Set-up: dose 0.5 mg/kg, route intravenous
measurement.name: clearance (mL/min/kg)
Please state the figure in mL/min/kg; there is no need to write the unit.

Supply clearance value. Item: Cc1ccc(C(=O)NC2CC2)cc1-c1ccc(C(=O)NCC2CC2)cc1 6

====

- assay.procedure: Oral bioavailability in Lewis rat at […]
- Type: ADME, organism-based
- condition.label: in vivo
measurement.name: bioavailability (%)
Report only the number, with the unit % understood.

Please look at this compound and report its bioavailability: Cc1ccc(C(=O)NC2CC2)cc1-c1ccc(C(=O)NCC2CC2)cc1 113

Data provenance is ChEMBL document CHEMBL1155838.
